Reported pKi by item:
Target: Anopheles gambiae CBE
Test: Inhibition of insect CBEs, 4-NPB substrate
Details: n=3
pKi: −log10 of the molar value.

| SMILES_REPR | pKi |
| --- | --- |
| OB(O)c1cc2ccc(OCc3ccccc3)cc2[nH]1 | 7.10 |
| Cc1ccc(B(O)O)cc1OCc1ccccc1 | 6.77 |
| OB(O)c1ccc(COc2ccc(Cl)c3ccccc23)cc1 | 6.70 |
| O=C(Nc1ccccc1Cl)c1cc(B(O)O)ccc1Cl | 6.38 |
| CC(C)Oc1cc(Br)cc(B(O)O)c1 | 6.48 |
| OB(O)c1cc(Br)cc(N2CCCC2)c1 | 6.10 |
| OB(O)c1ccc(OCc2ccccc2F)c(Cl)c1 | 7.52 |

###

Molecular target: Gly137Asp LcαE7 (Gly137Asp variant of αE7 carboxylesterase) (Lucilia cuprina, UniProt Q25252, G137D)
Construct: GenBank number is of the wild-type parent
Sequence (Q25252 entry or part of it G137D): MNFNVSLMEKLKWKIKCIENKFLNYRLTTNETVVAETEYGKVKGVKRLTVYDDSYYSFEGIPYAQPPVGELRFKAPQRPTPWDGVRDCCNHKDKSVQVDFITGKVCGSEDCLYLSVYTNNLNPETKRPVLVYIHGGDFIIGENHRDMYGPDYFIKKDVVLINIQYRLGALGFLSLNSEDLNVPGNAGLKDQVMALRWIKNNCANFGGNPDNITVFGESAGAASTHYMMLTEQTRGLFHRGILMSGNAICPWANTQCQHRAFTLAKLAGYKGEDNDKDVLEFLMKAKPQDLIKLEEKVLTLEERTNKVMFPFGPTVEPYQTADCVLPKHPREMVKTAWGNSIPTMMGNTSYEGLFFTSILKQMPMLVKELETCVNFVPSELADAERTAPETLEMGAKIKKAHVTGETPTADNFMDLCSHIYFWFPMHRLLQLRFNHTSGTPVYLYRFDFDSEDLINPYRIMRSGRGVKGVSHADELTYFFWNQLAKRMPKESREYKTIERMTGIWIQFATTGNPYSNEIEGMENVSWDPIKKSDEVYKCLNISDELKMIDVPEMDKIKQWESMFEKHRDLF
Assay: Inhibition of Gly137Asp αE7 (competition assay, hydrolysis of 4-nitrophenol butyrate), dose-response curves of FIG. 8
pIC50: −log10 of the molar value.
Hi, to clarify the labels: 1 (yes) covers pIC50 from 6 upward, 0 (no) covers anything below 6.

| SMILES_REPR | CLASS_LABEL |
| --- | --- |
| OB(O)c1cc(Cl)cc(N2CCCC2)c1 | 1 (yes) |
| Cc1ccc(B(O)O)cc1OCc1ccccc1 | 1 (yes) |
| OB(O)c1ccc(OCc2ccccc2F)c(Cl)c1 | 1 (yes) |
| O=C(c1cc(Cl)cc(B(O)O)c1)N1CCOCC1 | 0 (no) |
| Cc1ccc(B(O)O)cc1Br | 1 (yes) |

###

Test system: HT29
Experiment: Cell toxicity panel, viability (luminescence)
Assay type: cell-based, human
Conditions: Homo sapiens, HT-29; Readout: Luminescence; read-out: IC50 Viability Cells, Cell line: HT29
QUANTITY_KIND: IC50 (µM)

| SMILES_REPR | UNITS | RESULT_COMPARATOR | NUMERIC_RESULT |
| --- | --- | --- | --- |
| Cc1ccc(B(O)O)cc1Br | µM | > | 99.8 |
| OB(O)c1ccc(OCc2ccccc2F)c(Cl)c1 | µM | = | 62.4 |
| OB(O)c1cc(Br)cc(OCc2ccccc2)c1 | µM | = | 72.8 |
| OB(O)c1cc(Br)cc(N2CCCC2)c1 | µM | > | 99.8 |
| Cc1ccc(B(O)O)cc1OCc1ccccc1 | µM | = | 34.1 |
| OB(O)c1ccc2ccccc2c1 | µM | > | 99.8 |

###

Target: bacterial AmpC β-lactamase (Escherichia coli, UniProt P00811)
Sequence (P00811 20-377): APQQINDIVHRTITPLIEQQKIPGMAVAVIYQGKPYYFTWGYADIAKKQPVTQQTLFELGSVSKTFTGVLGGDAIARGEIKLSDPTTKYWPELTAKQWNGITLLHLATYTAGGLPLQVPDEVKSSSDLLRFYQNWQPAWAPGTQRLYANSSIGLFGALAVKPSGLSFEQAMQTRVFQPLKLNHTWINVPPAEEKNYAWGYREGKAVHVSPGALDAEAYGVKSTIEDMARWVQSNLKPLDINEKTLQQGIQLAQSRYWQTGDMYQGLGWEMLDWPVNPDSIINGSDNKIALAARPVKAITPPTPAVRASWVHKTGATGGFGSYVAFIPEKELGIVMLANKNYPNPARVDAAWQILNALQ
Experiment: AmpC β-lactamase selectivity
Reported Ki by item:
QUANTITY_KIND: Ki

| SMILES_REPR | ASSAYED_SYSTEM | QUANTITY_KIND | RESULT |
| --- | --- | --- | --- |
| Cc1ccc(B(O)O)cc1Br | bacterial AmpC β-lactamase (Escherichia coli, UniProt P00811) | Ki | 216 nM |
| OB(O)c1ccc(OCc2ccccc2F)c(Cl)c1 | bacterial AmpC β-lactamase (Escherichia coli, UniProt P00811) | Ki | 220 nM |
| Cc1ccc(B(O)O)cc1OCc1ccccc1 | bacterial AmpC β-lactamase (Escherichia coli, UniProt P00811) | Ki | 380 nM |
| OB(O)c1ccc2ccccc2c1 | bacterial AmpC β-lactamase (Escherichia coli, UniProt P00811) | Ki | 104 nM |
| OB(O)c1cc(Br)cc(N2CCCC2)c1 | bacterial AmpC β-lactamase (Escherichia coli, UniProt P00811) | Ki | 60 nM |

Where these numbers come from: patent US20190327974A1
